- SUBJECT OF TEST: Neuronal acetylcholine receptor; alpha3/beta4 (Homo sapiens, UniProt P30926+P32297)
- Sequence (P30926 whole entry): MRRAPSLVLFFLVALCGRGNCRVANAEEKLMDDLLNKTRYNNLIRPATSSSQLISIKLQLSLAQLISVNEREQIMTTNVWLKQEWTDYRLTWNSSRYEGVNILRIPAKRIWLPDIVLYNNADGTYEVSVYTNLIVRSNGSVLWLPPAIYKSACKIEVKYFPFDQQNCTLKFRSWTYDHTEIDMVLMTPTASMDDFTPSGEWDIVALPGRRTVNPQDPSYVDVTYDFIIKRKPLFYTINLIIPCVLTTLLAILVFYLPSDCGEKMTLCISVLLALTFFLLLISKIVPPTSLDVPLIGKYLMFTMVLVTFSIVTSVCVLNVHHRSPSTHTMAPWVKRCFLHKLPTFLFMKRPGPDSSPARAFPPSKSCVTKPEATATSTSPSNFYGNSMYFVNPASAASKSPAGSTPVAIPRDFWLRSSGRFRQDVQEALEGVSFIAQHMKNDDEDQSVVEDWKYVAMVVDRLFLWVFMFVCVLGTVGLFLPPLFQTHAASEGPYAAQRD
- Sequence (P32297 whole entry): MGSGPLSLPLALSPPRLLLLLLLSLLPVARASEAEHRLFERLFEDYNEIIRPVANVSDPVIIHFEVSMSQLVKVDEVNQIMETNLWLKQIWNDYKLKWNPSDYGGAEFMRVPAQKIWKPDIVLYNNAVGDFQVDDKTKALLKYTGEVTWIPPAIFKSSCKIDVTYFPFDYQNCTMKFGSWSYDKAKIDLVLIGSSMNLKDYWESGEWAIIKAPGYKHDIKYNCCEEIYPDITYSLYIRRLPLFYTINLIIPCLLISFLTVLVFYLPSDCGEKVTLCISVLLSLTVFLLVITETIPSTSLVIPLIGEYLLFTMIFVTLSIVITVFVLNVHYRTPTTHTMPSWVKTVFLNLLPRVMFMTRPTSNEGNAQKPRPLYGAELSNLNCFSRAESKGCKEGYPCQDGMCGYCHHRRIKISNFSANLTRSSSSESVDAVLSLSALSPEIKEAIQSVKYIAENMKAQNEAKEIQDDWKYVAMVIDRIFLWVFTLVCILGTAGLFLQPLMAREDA
- ASSAY REMARKS: Agonist activity at human alpha3beta4 nAChR expressed in rat GH4C1 cells assessed as inward channel current amplitude at -70 mV holding potential by whole cell electrophysiology method
EXPERIMENTAL ENDPOINT: pEC50
FYI, pEC50 means -log10 of a concentration in mol per litre.

[Q] Fill in the recorded pEC50 for this compound, with Neuronal acetylcholine receptor; alpha3/beta4 (Homo sapiens, UniProt P30926+P32297) as test system: `COc1ccc(Nc2cncc(N3CC4CC(C3)N4)c2)cc1`
[A] 5.54
